B1: LOXL2 (parent)
chain: HISSCKLGPQVSLDPMKNVTCENG

variants of: B1; experiment: protein stability index of a GFP-peptide fusion (GPS, HEK-293T) (PSI 1-6); higher = more stable; conditions: c terminus: a fixed tail appended;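 further: lentivirally expressed fusions sorted by FACS into six bins by GFP to DsRed ratio, PSI derived from sequencing read proportions per bin multiplied by bin number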
Response key: met means protein stability index >= 4; not met means protein stability index < 4.

Previously resolved entries follow.
Seq Text	Assigned Category
HISSCKLGPQVSLDPMKNFTCENG	not met
HISSCKLGPQVSLDPMKNVTLENG	not met
HISSCKLGPQVSLDPMKNVECENG	met

Request: Determine whether measured protein stability index meets or exceeds 4 for "HISSCKLGPQVSLDPMKNVTCPNG"
Response: not met

Request: Determine whether measured protein stability index meets or exceeds 4 for "HISSCKLGPQVSLDPMKNVKCENG"
Response: met
